Recorded protein stability index by entry
B1: GLTSCR2 (parent)
chain: FQRRNMIEPRERAKFKRKYKVKLV

- Variants of: B1
- protocol-notes: protein stability index of a GFP-peptide fusion (GPS, HEK-293T) (PSI 1-6); higher = more stable;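 further: lentivirally expressed fusions sorted by FACS into six bins by GFP to DsRed ratio, PSI derived from sequencing read proportions per bin multiplied by bin number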
- details: c terminus: a fixed tail appended
Give your answer as a number; write no unit.

Consider the following illustrative entries.
| alteration | protein stability index |
| --- | --- |
| V24T | 2.93 |
| V24H | 2.15 |

Prompt: Field request: protein stability index | item: "K20T"
Completion: 2.34

Prompt: Field request: protein stability index | item: "N5F"
Completion: 1.59

Prompt: Field request: protein stability index | item: "R10G"
Completion: 2.12

Prompt: Field request: protein stability index | item: "Y19Q"
Completion: 2.87

Prompt: Field request: protein stability index | item: "N5P"
Completion: 2.36

Prompt: Field request: protein stability index | item: "R10K"
Completion: 2.28

Prompt: Field request: protein stability index | item: "K14A"
Completion: 1.81

Prompt: Field request: protein stability index | item: "L23C"
Completion: 2.73

Prompt: Field request: protein stability index | item: "K18G"
Completion: 1.98

Reference for the values: the supplement of paper PMC10567573
